Reference for the values: paper PMC4890005

assayTarget: Cdr1p (Cdr1p-GFP) (Candida albicans, UniProt Q5ANA3, DEL903-903)
experiment: cell-based
parameterMeasured: Kd (µM)

INSERT INTO measurements (compound, parametermeasured, value) VALUES
  ('CCN=c1cc2oc3cc(NCC)c(C)cc3c(-c3ccccc3C(=O)OCC)c-2cc1C [Rhodamine 6G]', 'Kd', 11.9);

====

assayTarget: Cdr1p (Cdr1p-GFP) (Candida albicans, UniProt Q5ANA3)
Construct: plasmid pPSCDR1-GFP integrated at PDR5 locus of S. cerevisiae AD1-8u-; plasma membrane fractions or cells
experiment: R6G binding, from drug transport kinetics of overexpressing yeast (method not detailed)
pKd: −log10 of the molar value.
parameterMeasured: pKd

INSERT INTO results (smilesstring, parametermeasured, value) VALUES
  ('CCN=c1cc2oc3cc(NCC)c(C)cc3c(-c3ccccc3C(=O)OCC)c-2cc1C', 'pKd', 5.05);

====

assayTarget: Cdr1p (Cdr1p-GFP) (Candida albicans, UniProt Q5ANA3, DEL905-905)
experiment: cell-based
parameterMeasured: Kd

INSERT INTO measurements (smilesstring, parametermeasured, value) VALUES
  ('CCN=c1cc2oc3cc(NCC)c(C)cc3c(-c3ccccc3C(=O)OCC)c-2cc1C', 'Kd', '25 µM');
